Please go through the items and note down their cAMP Rel EC50, nM (1% HSA).
molecular target: hGLP-1R (Homo sapiens, UniProt P43220); assay: cell-based or functional assay
Sequence (P43220 24-463): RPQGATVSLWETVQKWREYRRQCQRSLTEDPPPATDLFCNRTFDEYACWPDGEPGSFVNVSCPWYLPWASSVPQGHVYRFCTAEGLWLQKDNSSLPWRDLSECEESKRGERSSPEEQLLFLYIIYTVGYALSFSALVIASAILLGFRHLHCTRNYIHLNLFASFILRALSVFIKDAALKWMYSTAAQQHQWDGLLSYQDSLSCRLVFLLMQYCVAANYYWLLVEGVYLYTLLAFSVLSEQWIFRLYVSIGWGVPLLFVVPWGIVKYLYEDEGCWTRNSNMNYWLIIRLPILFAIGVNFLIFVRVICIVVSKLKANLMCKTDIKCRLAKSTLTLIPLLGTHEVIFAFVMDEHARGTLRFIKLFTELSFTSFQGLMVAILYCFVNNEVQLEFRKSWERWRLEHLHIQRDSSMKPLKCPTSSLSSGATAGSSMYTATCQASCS
Non-standard residues stand in square brackets, D forms with d. No end group written: not given here. Phe(4-CN) = N#Cc1ccc(C[C@H](N)C(=O)O)cc1; αMePhe(2-F) = C[C@](N)(Cc1ccccc1F)C(=O)O; Aib = CC(C)(N)C(=O)O
The reply should be a number in nM, with the unit left off.

Recorded result, Y[Aib]QGT[αMePhe(2-F)]TSD[Phe(4-CN)]SILLDKQAQKAFIEYLLEGGPSSGEPPPSAG-NH2 (not fully specified (residue 20)) [Example 350] , cAMP Rel EC50, nM (1% HSA): 360

Recorded result, YXQGTXTSDYXSXLDXKAQXXFIEXLLEGGPSSGEPPPE (synthetic construct; SITE 2: note = 2-Aminoisobutyric Acid; SITE 6: note = alpha-methyl-L-phenylalanine; SITE 11: note = alpha-methyl-L-serine; SITE 13: note = alpha-methyl-leucine; SITE 16: note = L-ornithine; SITE 17: note = Lysine is chemically modified through conjugation of the epsilon-amino gr) [Example 389] , cAMP Rel EC50, nM (1% HSA): 18.9

Recorded result, YXQGTFTSDFSXXLDKKAQXAFIEWLLEGGSSSGAPPPSGT (synthetic construct; SITE 2: note = 2-Aminoisobutyric Acid; SITE 12: note = L-ornithine; SITE 13: note = alpha-methyl-leucine; SITE 17: note = Lysine is chemically modified through conjugation of the epsilon-amino group of the Lysine side chain with (2-[2-(2-Amino-ethoxy)-ethoxy]-acetyl)-(gamma-Glu)) [Example 174] , cAMP Rel EC50, nM (1% HSA): 208

Recorded result, YXQGTFTSDXSQXLDKKAQXAFIEYLIAGGPSSGEPPPSGS (non-natural residues; lipidated Lys (γGlu)2-C18 diacid; C-term amide; synthetic construct; SITE 2: note = 2-Aminoisobutyric Acid; SITE 10: note = 3-(4-Pyridyl)-L-alanine; SITE 13: note = alpha-methyl-leucine; SITE 17: note = Lysine is chemically modified through conjugation of the epsilon-amino group of the Lysine side chain with (gamma-Glu)2-CO-(CH2)16-CO2H; SITE 20:) [Example 968] , cAMP Rel EC50, nM (1% HSA): 103

Recorded result, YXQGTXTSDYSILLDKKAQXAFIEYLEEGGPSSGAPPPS (synthetic construct; SITE 2: note = 2-Aminoisobutyric Acid; SITE 6: note = alpha-methyl-L-phenylalanine; SITE 17: note = Lysine is chemically modified through conjugation of the epsilon-amino group of the Lysine side chain with (2-[2-(2-Amino-ethoxy)-ethoxy]-acetyl)-(gamma-Glu)-CO-(CH2) 16-CO2H; SIT) [Example 392] , cAMP Rel EC50, nM (1% HSA): 41.5

Recorded result, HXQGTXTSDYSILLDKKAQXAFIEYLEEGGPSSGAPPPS (not fully specified; synthetic construct; SITE 2: note = 2-Aminoisobutyric Acid; SITE 6: note = alpha-methyl-2-fluoro-L-phenylalanine; SITE 17: note = Lysine is chemically modified through conjugation of the epsilon-amino group of the Lysine side chain with (2-[2-(2-Amino-ethoxy)-ethoxy]-acetyl)-(gamma-Glu)-CO-(CH2) 16-) [Example 425] , cAMP Rel EC50, nM (1% HSA): 20.3
